Below, each entry is listed alongside its reported IC50.
- target: recombinant human c-Met/HGF receptor (Homo sapiens, UniProt P08581)
- Construct: His tag (pBlueBacHis2A vector); made in house; host or cells: Hi-5 cells (Trichoplusia ni), baculovirus
- Sequence (P08581 1078-1337): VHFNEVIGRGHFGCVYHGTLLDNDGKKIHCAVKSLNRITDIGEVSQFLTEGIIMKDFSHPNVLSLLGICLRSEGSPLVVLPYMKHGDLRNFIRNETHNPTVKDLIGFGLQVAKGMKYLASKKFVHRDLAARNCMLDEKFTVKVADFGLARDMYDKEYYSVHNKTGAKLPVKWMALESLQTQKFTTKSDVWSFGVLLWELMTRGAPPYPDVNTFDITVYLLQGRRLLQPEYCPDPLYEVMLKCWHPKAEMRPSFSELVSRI
- assayComment: In vitro receptor tyrosine kinase assay (DELFIA), c-Met/HGF receptor
- Assay type: biochemical
- testConditions: read-out: CMET IC50

| compound | IC50 |
| --- | --- |
| CN(C)CCn1cnc(-c2cc3nccc(Oc4ccc(NC(=O)C5(C(=O)Nc6ccccc6F)CC5)cc4F)c3s2)c1 | < 50 nM |
| COc1ccccc1CCNC(=O)C(=O)Nc1ccc(Oc2ccnc3cc(-c4cn(C)cn4)sc23)c(F)c1 | 250 to 500 nM |
| Cn1ccnc1-c1cc2nccc(Oc3ccc(NC(=O)CC(=O)Nc4ccccc4F)cc3F)c2s1 [drawing 285] | < 50 nM |

[ask] Consider the compound shown here: `CCn1cnc(-c2cc3nccc(Oc4ccc(NC(=O)C(=O)NCCc5ccccc5F)cc4F)c3s2)c1` What is its recorded IC50?
[reply] 50 to 250 nM

* * *

- target: recombinant human c-Met/HGF receptor (Homo sapiens, UniProt P08581)
- Construct: His tag (pBlueBacHis2A vector); made in house; host or cells: Hi-5 cells (Trichoplusia ni), baculovirus
- assayComment: In vitro receptor tyrosine kinase assay (DELFIA), c-Met/HGF receptor
- Assay type: biochemical
- testConditions: read-out: CMET IC50
reportedProperty: IC50

Recorded results for 5 compounds are shown here.
| compound | IC50 |
| --- | --- |
| COc1ccccc1NC(=O)CC(=O)Nc1ccc(Oc2ccnc3cc(-c4cccc(CN5CCOCC5)c4)sc23)c(F)c1 | 50 to 250 nM |
| CN(C)CCn1cnc(-c2cc3nccc(Oc4ccc(NC(=O)CC(=O)N(C)c5ccccc5)cc4F)c3s2)c1 | < 50 nM |
| CC(C(=O)Nc1ccccc1)C(=O)Nc1ccc(Oc2ccnc3cc(-c4nccn4C)sc23)c(F)c1 (stereo not shown) [drawing 286] | 50 to 250 nM |
| O=C(Nc1ccc(Oc2ccnc3cc(-c4cn(CCCN5CCCC5)cn4)sc23)c(F)c1)C1(C(=O)Nc2ccccc2F)CC1 | < 50 nM |
| CCn1cc(-c2cc3nccc(Oc4ccc(NC(=O)CC(=O)Nc5ccccc5OC)cc4F)c3s2)nc1CN(C)C | < 50 nM |

[ask] Consider the compound shown here: COc1ccccc1NC(=O)CC(=O)Nc1ccc(Oc2ccnc3cc(-c4cncn4C)sc23)c(F)c1 [drawing 289] What is its recorded IC50?
[reply] < 50 nM

[ask] Could you do the same for `O=C(Nc1ccc(Oc2ccnc3cc(-c4cn(CCN5CCCC5)cn4)sc23)c(F)c1)N1CCN(c2ccccc2)C1=O` , please?
[reply] < 50 nM

[ask] Could you do the same for CCn1cnc(-c2cc3nccc(Oc4ccc(NC(=O)CC(Nc5ccccc5)C(F)(F)F)cc4F)c3s2)c1 (stereo not shown) , please?
[reply] 50 to 250 nM

[ask] Could you do the same for `O=C(CC(=O)Nc1ccccc1F)Nc1ccc(Oc2ccnc3cc(C#CCN4CCOCC4)sc23)c(F)c1` , please?
[reply] 50 to 250 nM

[ask] Could you do the same for `CN(C)CCCn1cnc(-c2cc3nccc(Oc4ccc(NC(=O)CC(=O)N(C)c5ccccc5)cc4F)c3s2)c1` , please?
[reply] < 50 nM

[ask] Could you do the same for CC(C)n1cnc(-c2cc3nccc(Oc4ccc(NC(=O)C5CCN(c6ccccc6)C5=O)cc4F)c3s2)c1 (stereo not shown) , please?
[reply] < 50 nM

[ask] Could you do the same for `COc1ccccc1NC(=O)CC(=O)Nc1ccc(Oc2ccnc3cc(C(=O)NN(C)C)sc23)c(F)c1` , please?
[reply] 250 to 500 nM

[ask] Could you do the same for `CN(C)[C@H]1CCN(C(=O)c2cc3nccc(Oc4ccc(NC(=O)N5CCN(c6ccccc6)C5=O)cc4F)c3s2)C1` , please?
[reply] < 50 nM

[ask] Could you do the same for `CCn1cnc(-c2cc3nccc(Oc4ccc(NC(=O)N5CCN(c6ccccc6F)C5=O)cc4F)c3s2)c1` , please?
[reply] < 50 nM

[ask] Could you do the same for `CN1CCN(Cc2ccc(-c3cc4nccc(Oc5ccc(NC(=O)C6(C(=O)Nc7ccc(F)cc7)CC6)cc5F)c4s3)cc2)CC1` , please?
[reply] < 50 nM

[ask] Could you do the same for `COc1cccc(Nc2cc3nccc(Oc4ccc(NC(=O)CC(=O)Nc5ccccc5)cc4F)c3s2)c1` , please?
[reply] 50 to 250 nM

* * *

- target: recombinant human c-Met/HGF receptor (Homo sapiens, UniProt P08581)
- Construct: His tag (pBlueBacHis2A vector); made in house; host or cells: Hi-5 cells (Trichoplusia ni), baculovirus
- assayComment: In vitro receptor tyrosine kinase assay (DELFIA), c-Met/HGF receptor
- Type: biochemical
- testConditions: read-out: CMET IC50
pIC50: −log10 of the molar value.
Below, each entry is listed alongside its reported pIC50.

Recorded results for 4 compounds are shown here.
| compound | pIC50 |
| --- | --- |
| Cn1cnc(-c2cc3nccc(Oc4ccc(NC(=O)N5CCN(N6CCCCC6)C5=O)cc4F)c3s2)c1 | > 7.30 |
| CC(=O)N1CC=C(c2cc3nccc(Oc4ccc(NC(=O)N5CCN(c6ccc(F)cc6)C5=O)cc4F)c3s2)CC1 | > 7.30 |
| CC(C)n1cnc(-c2cc3nccc(Oc4ccc(NC(=O)CC(=O)Nc5nccs5)cc4F)c3s2)c1 | > 7.30 |
| CCn1cnc(-c2cc3nccc(Oc4ccc(NC(=O)C5CCN(c6ccccc6)C5=O)cc4F)c3s2)c1 (centres unmarked) | > 7.30 |

[ask] Write down the reported pIC50 of `Cn1ccnc1-c1cc2nccc(Oc3ccc(NC(=O)CS(=O)(=O)c4ccc(F)cc4)cc3F)c2s1` , test system: recombinant human c-Met/HGF receptor (Homo sapiens, UniProt P08581).
[reply] 6.30 to 6.60

[ask] Could you do the same for `CN1CCN(CCN(C)Cc2ccc(-c3cc4nccc(Oc5ccc(NC(=O)CC(=O)N(C)c6ccccc6)cc5F)c4s3)cc2)CC1` , please?
[reply] > 7.30

[ask] Could you do the same for `CCn1cnc(-c2cc3nccc(Oc4ccc(NC(=O)C(=O)NCCc5ccccc5OC)cc4F)c3s2)c1` , please?
[reply] 6.60 to 7.30

[ask] Could you do the same for `COc1ccccc1NC(=O)CC(=O)Nc1ccc(Oc2ccnc3cc(-c4cccc(CN(C)C)c4)sc23)c(F)c1` , please?
[reply] > 7.30

* * *

Below, each entry is listed alongside its reported IC50.
- target: TPR-MET fusion protein (Homo sapiens)
- Construct: the MET gene on chromosome 7 encoding for its cytoplasmic region catalytic domain; host or cells: MNNGHOS cells; the other entry of the earlier key: TPR (P12270, Nucleoprotein TPR)
- Sequence (P08581 with tags, fused parts or gaps): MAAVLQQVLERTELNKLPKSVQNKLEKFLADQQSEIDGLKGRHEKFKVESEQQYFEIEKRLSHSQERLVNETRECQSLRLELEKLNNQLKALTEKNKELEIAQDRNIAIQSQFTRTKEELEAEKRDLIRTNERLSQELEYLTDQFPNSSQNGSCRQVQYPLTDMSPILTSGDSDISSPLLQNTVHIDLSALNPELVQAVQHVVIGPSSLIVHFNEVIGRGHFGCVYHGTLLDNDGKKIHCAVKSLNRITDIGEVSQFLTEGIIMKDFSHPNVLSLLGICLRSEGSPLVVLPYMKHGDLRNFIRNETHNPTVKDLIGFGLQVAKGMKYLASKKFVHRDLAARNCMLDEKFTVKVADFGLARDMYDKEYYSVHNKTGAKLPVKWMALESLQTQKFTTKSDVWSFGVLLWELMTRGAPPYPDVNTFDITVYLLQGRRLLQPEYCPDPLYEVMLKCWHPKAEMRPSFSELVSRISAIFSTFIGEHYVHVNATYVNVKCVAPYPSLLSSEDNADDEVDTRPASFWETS
- assayComment: C-Met phosphorylation cell-based assay (MNNGHOS cells)
- testConditions: MNNGHOS cells, 3 hours treatment, immunoblot; read-out: Y1230-34-35 TPR-MET phosphorylation (IC50)

Recorded results for 3 compounds are shown here.
| compound | valueMeasured |
| --- | --- |
| CN(C(=O)CC(=O)Nc1ccc(Oc2ccnc3cc(-c4nccn4C)sc23)c(F)c1)c1ccccc1 [Compound 32] | > 5 µM |
| Cn1ccnc1-c1cc2nccc(Oc3ccc(NC(=O)CC(=O)Nc4cccnc4)cc3F)c2s1 [Compound 40] | ~0.5 µM |
| O=C(CC(=O)Nc1ccc(Oc2ccnc3cc(C(=O)N4CCCC4)sc23)c(F)c1)Nc1ccccc1 [Compound 5f] | ~2 µM |

[ask] Write down the reported IC50 of COc1ccccc1NC(=O)CC(=O)Nc1ccc(Oc2ccnc3cc(-c4nccn4C)sc23)c(F)c1 [Compound 28a] , test system: TPR-MET fusion protein (Homo sapiens).
[reply] ~0.2 µM

[ask] Could you do the same for Cn1ccnc1-c1cc2nccc(Oc3ccc(NC(=O)CC(=O)Nc4ccncc4)cc3F)c2s1 [Compound 34] , please?
[reply] > 5 µM

* * *

- target: recombinant human c-Met/HGF receptor (Homo sapiens)
- Construct: His tag (pBlueBacHis2A vector); made in house; host or cells: Hi-5 cells (Trichoplusia ni), baculovirus
- assayComment: In vitro receptor tyrosine kinase assay (DELFIA), c-Met/HGF receptor
- Type: biochemical
- testConditions: read-out: CMET IC50
pIC50: −log10 of the molar value.
reportedProperty: pIC50

Recorded results for 4 compounds are shown here.
| compound | target | valueMeasured |
| --- | --- | --- |
| O=C(CC(=O)Nc1ccc(Oc2ccnc3cc(-c4cccc[n+]4[O-])sc23)c(F)c1)Nc1ccccc1 | recombinant human c-Met/HGF receptor (Homo sapiens) | > 7.30 |
| COc1ccccc1NC(=O)CC(=O)Nc1ccc(Oc2ccnc3cc(-c4ccc(OCCCN(C)C)nc4)sc23)c(F)c1 | recombinant human c-Met/HGF receptor (Homo sapiens) | 6.60 to 7.30 |
| COc1ccccc1NC(=O)CC(=O)Nc1ccc(Oc2ccnc3cc(N4CCCC4=O)sc23)c(F)c1 | recombinant human c-Met/HGF receptor (Homo sapiens) | 6.60 to 7.30 |
| Cn1cncc1-c1cc2nccc(Oc3ccc(NC(=O)CC(=O)Nc4cccnc4)cc3F)c2s1 [drawing 290] | recombinant human c-Met/HGF receptor (Homo sapiens) | 6.60 to 7.30 |

[ask] Consider the compound shown here: `CN1CCN(CCN(C)Cc2ccc(-c3cc4nccc(Oc5ccc(NC(=O)CC(=O)Nc6ccc(F)cc6)cc5F)c4s3)cc2)CC1` What is its recorded pIC50?
[reply] > 7.30
